- System: MCF-7/adr cells
- assayExplanation: Breast cancer clonogenic assay, MCF-7/adr
- Assay type: cell-based, Human
- details: Homo sapiens, NCI/ADR-RES, absence of ketotifen, read-out: IC90 of cytotoxic drugs on MCF-7/adr, −ke
- Protocol: MCF-7/adr cells were treated with different concentrations of reversal compounds with or without 2 μM doxorubicin for 24 hours. Cells were harvested, and plated for growth of breast cancer colonies in triplicates. […] DXN: doxorubicin. FIG. 2 Influence of 10 μM of ketotifen on the toxicities of four cytotoxic drugs. […] The toxicity of the cytotoxic drugs was measured by clonogenicity assay. […]
Where a name gives a salt, the structure may show the parent alone.
Each entry below lists one item and its recorded IC90 value.

compound: CC[C@]1(O)C[C@@H]2CN(CCc3c([nH]c4ccccc34)[C@@](C(=O)OC)(c3cc4c(cc3OC)N(C)[C@H]3[C@@](O)(C(=O)OC)[C@H](OC(C)=O)[C@]5(CC)C=CCN6CC[C@]43[C@@H]65)C2)C1
targetSystem: MCF-7/adr cells
IC90: 410 µM
//
compound: O=C1c2c(O)ccc(O)c2C(=O)c2c(NCCNCCO)ccc(NCCNCCO)c21
targetSystem: MCF-7/adr cells
IC90: 0.22 µM
//
compound: COc1cc([C@@H]2c3cc4c(cc3[C@@H](O[C@@H]3O[C@@H]5CO[C@@H](C)O[C@H]5[C@H](O)[C@H]3O)[C@H]3COC(=O)[C@H]23)OCO4)cc(OC)c1O [VP-16, etoposide]
targetSystem: MCF-7/adr cells
IC90: 220 µM
//
compound: COc1cccc2c1C(=O)c1c(O)c3c(c(O)c1C2=O)C[C@@](O)(C(=O)CO)C[C@@H]3O[C@H]1C[C@H](N)[C@H](O)[C@H](C)O1 [Doxorubicin, hydrochloride]
targetSystem: MCF-7/adr cells
IC90: > 10 µM
